The measurements presented in this section are drawn from the supplement of paper PMC7125110.

B1: glmS ribozyme (parent)
chain: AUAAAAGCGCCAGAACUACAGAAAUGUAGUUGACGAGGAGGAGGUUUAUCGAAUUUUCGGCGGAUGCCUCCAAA

variants of: B1; assay: self-cleavage kobs at 640 uM GlcN6P; higher = faster cleavage; RNA array; conditions: with glucosamine-6-phosphate
This sample holds only a part of the variants without activity.
// label = TRUE if self-cleavage kobs at 640 uM GlcN6P is not less than 0.0002 s⁻¹, otherwise FALSE

Ask: Please check the record A53U U65G and state if its self-cleavage kobs at 640 uM GlcN6P is at or above 0.0002 s⁻¹.
Reply: TRUE

Ask: Please check the record G40U U47C and state if its self-cleavage kobs at 640 uM GlcN6P is at or above 0.0002 s⁻¹.
Reply: TRUE

Ask: Please check the record G29U A53U and state if its self-cleavage kobs at 640 uM GlcN6P is at or above 0.0002 s⁻¹.
Reply: TRUE
